Source: PubChem BioAssay (NCI)

Entries and their measured TGI follow.
Test system: HCT-15 colon
experimental protocol: NCI tumour cell line growth inhibition, 48 h

Some compounds with recorded TGI:
compound: COc1ccc(/C=C2\CCC(CNc3ccc(Br)cc3)C2=O)cc1 (centres undefined)
TGI: > 100 µM
--
compound: CC1(C)C2CCC13C(=O)C1OC3(C2)C2C(=O)c3c(O)cccc3C(=O)C12 (centres undefined)
TGI: 0.905 µM
--
compound: COc1ccc2[nH]c(-c3ccccc3)cc2c1
TGI: > 100 µM
--
compound: CCOC(=O)C[C@@]12CCCNC1(C)CCc1ccccc12 (some centres undefined)
TGI: > 100 µM

Under HCT-15 colon: TGI value of CCCNC(=O)CCC(C)[C@H]1CCC2C3C(C[C@H](OC(C)=O)[C@@]21C)[C@@]1(C)CCC2(C[C@H]1C[C@H]3OC(C)=O)OOC1(CCCCC1)OO2 (some centres undefined) ? > 100 µM

Under HCT-15 colon: TGI value of CC(=O)c1ccc(NC(=O)CSc2nc(C)nc3c2sc(=S)n3-c2ccccc2)cc1 ? > 3.16 µM

Under HCT-15 colon: TGI value of CC1(C)COC(c2c(-c3ccccc3)noc2CS(=O)c2ccccc2)=N1 (centres undefined) ? > 100 µM

Under HCT-15 colon: TGI value of O=C(O)C1C2C=CC(O2)C1C(=O)Nc1ncccn1 (centres undefined) ? > 100 µM

Under HCT-15 colon: TGI value of Cc1nnc(N=Nc2c(O)[nH]c3ccccc23)n1N ? > 100 µM

---

Entries and their measured TGI follow.
System: HCC-2998 colon
experimental protocol: NCI tumour cell line growth inhibition, 48 h

Some compounds with recorded TGI:
compound: Cc1ccc(-n2c3c(c4c(CN5CCOCC5)c(O)ccc42)CCc2ccccc2C3=O)cc1
readout: TGI
value reported: > 100 µM
//
compound: CC[P+]1(CC)CCCC1
readout: TGI
value reported: > 100 µM
//
compound: NC(=S)N/N=C\CC(O)(C(F)(F)F)C(F)(F)F
readout: TGI
value reported: > 10 µM
//
compound: C=CCOC(=O)CCCCCCCCCCCCCCCOC(=O)C1=C(CCC[C@@H](C)O[Si](C)(C)C(C)(C)C)NC(=O)N2[C@H](CC3(CC/C=C\[C@H](CC)O[Si](C(C)C)(C(C)C)C(C)C)OCCO3)CC[C@H]12
readout: TGI
value reported: > 100 µM

Quick one: TGI of COc1ccc2[nH]c3c(=O)[nH]ncc3c2c1 ? > 100 µM

Quick one: TGI of CCCCCCCCCC(=O)Oc1cccc2onc(C)c12 ? > 100 µM

Quick one: TGI of CC1(C)CCC2(C(=O)OC3OC(CO)C(O)C(O)C3O)CCC3(CO)C(=CCC4C5(C)CC(O)C(O)C(C)(C(=O)OC6OC(CO)C(O)C(O)C6O)C5CCC43C)C2C1 (stereo not drawn) ? > 100 µM

Quick one: TGI of CC(C)(C)c1c(C(C)(C)C)c(=O)c1=O ? > 100 µM

Quick one: TGI of CCc1cccc(CC)c1/C=C/c1cncc(C(=O)NC)c1 ? > 25 µM

Quick one: TGI of COc1cc(O)c(C(C)=O)c(O)c1 ? > 100 µM

Quick one: TGI of CCOC(=O)C1CCCCc2sc(N)c(C#N)c21 (stereo not drawn) ? > 100 µM

Quick one: TGI of Cc1cc(=O)oc2cc(OCCn3c(C)nn(-c4ccc(Cl)cc4)c3=O)ccc12 ? > 100 µM

Quick one: TGI of OC12CCCCCC1(N1CCOCC1)c1ccccc12 (stereo not drawn) ? > 100 µM

---

System: MDA-MB-231 breast
experimental protocol: NCI tumour cell line growth inhibition, 48 h
Entries and their measured TGI follow.

Some compounds with recorded TGI:
cpd smiles: NC(=O)c1cc(I)ccc1NC(=O)COc1ccccc1
TGI: 26.6 µM
--
cpd smiles: CCN(CC)CCN(C)CCc1ccc(Br)cc1
TGI: > 100 µM
--
cpd smiles: O=S1(=O)OCCOS(=O)(=O)C1Cc1nc2ccccc2[nH]1
TGI: > 100 µM

Okay, next one:
Quick one: TGI of COc1ccc(/C=C(/C(=O)n2cnnn2)c2cc(OC)c(OC)c(OC)c2)cc1 ? > 100 µM

---

Entries and their measured TGI follow.
Tested on: DU-145 prostate
experimental protocol: NCI tumour cell line growth inhibition, 48 h

Some compounds with recorded TGI:
compound: COc1cc2cc(Oc3ccc(NC(=O)c4cccc5c4OCCO5)cc3)c(C)nc2cc1OC
target: DU-145 prostate
value reported: > 100 µM
//
compound: Cc1ccc(/C=C2\CN(C)CC3C2=NC(=S)NC3c2ccc(C)cc2)cc1 (stereo not drawn)
target: DU-145 prostate
value reported: > 100 µM

Okay, next one:
Under DU-145 prostate: TGI value of COc1ccc(C2=C(OC(=O)N(C)C)c3cccn3-c3cc(Cl)ccc3S2)cc1 ? > 10 µM

---

Tested on: UACC-62 melanoma
experimental protocol: NCI tumour cell line growth inhibition, 48 h
Entries and their measured log10 TGI follow.
Heads up, the numbers here are log10 of TGI in µM units.

Some compounds with recorded log10 TGI:
compound: c1cnc2[nH]cc(-c3csc(-c4cn(CCCN5CCCCC5)c5ccccc45)n3)c2c1
readout: log10 TGI
value reported: 0.52
--
compound: COc1ccc(CC2=NCCc3cc(OC)c(OC)cc32)cc1Br
readout: log10 TGI
value reported: 1.56
--
compound: c1ccc(CC(NCCNC(Cc2ccccc2)c2ccccc2)c2ccccc2)cc1 (stereo not drawn)
readout: log10 TGI
value reported: 0.27
--
compound: CC1(C)C2CCC13C(=O)C1OC3(C2)C2C(=O)c3c(O)cccc3C(=O)C12 (stereo not drawn)
readout: log10 TGI
value reported: -0.39
--
compound: CC(=O)[CH-]C(=O)c1ccccc1.CC(=O)[CH-]C(=O)c1ccccc1.[CH2-]CCC.[CH2-]CCC.[Sn+4]
readout: log10 TGI
value reported: 0.34

Under UACC-62 melanoma: log10 TGI value of CN(C)CCCC1(c2ccc(F)cc2)OCc2cc(-c3cncc4ccccc34)ccc21 (stereo not drawn) ? 0.71

Under UACC-62 melanoma: log10 TGI value of NC(=O)C(=O)n1ncc(Cl)c(Cl)c1=O ? 1.74

Under UACC-62 melanoma: log10 TGI value of CC(=O)NC1=C(NCC(C)C)C(=O)c2ccccc2C1=O ? 1.54

---

Test system: HCT-15 colon
experimental protocol: NCI tumour cell line growth inhibition, 48 h
readout: TGI

Some compounds with recorded TGI:
compound: COc1cc(O)c(C(C)=O)c(O)c1
value reported: > 100 µM
//
compound: C=C[C@@](C)(/C=C/c1ccc(O)cc1)CCC=C(C)C
value reported: 32.7 µM
//
compound: [N-]=[N+]=C(C(=O)C(=[N+]=[N-])C(=O)c1ccccc1)C(=O)c1ccccc1
value reported: > 100 µM
//
compound: CC(C)C1CC(CO)(CNc2cc(Cl)nc(N)n2)C1 (stereo not given)
value reported: > 100 µM

Quick one: TGI of CCCCCCCCCCCCCCCCS(=O)(=O)c1ccc(NN)cc1 ? > 10 µM

---

Tested on: HCT-116 colon
experimental protocol: NCI tumour cell line growth inhibition, 48 h
Entries and their measured log10 TGI follow.
Heads up, the numbers here are log10 of TGI in µM units.

compound: c1ccc(CC(NCCNC(Cc2ccccc2)c2ccccc2)c2ccccc2)cc1 (centres undefined)
log10 TGI: -0.31

compound: Fc1cc(-c2nnc3n2N=C(c2ccc(Cl)cc2Cl)CS3)c(Cl)cc1Cl
log10 TGI: 1.84

compound: CC1=C2NCN(C)N=C2C(C#N)(C#N)C1(C#N)C#N
log10 TGI: 1.76

compound: O=C1OI(C#Cc2ccccc2)c2ccccc21
log10 TGI: 0.76

Quick one: log10 TGI of O=C(CCN1CCCC1)Nc1ccc2c(Nc3ccccc3)c3ccccc3nc2c1 ? 0.34

Quick one: log10 TGI of CC/C(Cl)=N\OC(=O)Nc1ccc(F)cc1F ? 1.28

Quick one: log10 TGI of C/C(=N/O)c1ccc2c(c1)C(=NO)c1cc(/C(C)=N/O)ccc1-2 ? 1.81

Quick one: log10 TGI of COc1ccc(NC(=O)c2sc3nc4c(cc3c2N)CCCC4)cc1 ? 1.04

---

Tested on: MDA-MB-231 breast
experimental protocol: NCI tumour cell line growth inhibition, 48 h
readout: TGI

Some compounds with recorded TGI:
cpd smiles: COc1ccc(NC(=O)c2sc3nc4c(cc3c2N)CCCC4)cc1
target: MDA-MB-231 breast
TGI: > 100 µM

cpd smiles: CC(C)=CCC[C@@H](C)c1c2[nH]c3ccccc3sc-2c(C)c(=O)c1=O
target: MDA-MB-231 breast
TGI: > 75 µM

Quick one: TGI of COc1cc2nnn3c4ncccc4c(N=O)c3c2cc1OC ? > 53.9 µM

Quick one: TGI of CC(C)(CO)N=Cc1ccccc1[O-].CC(C)(CO)N=Cc1ccccc1[O-].[Co+2] ? > 100 µM

Quick one: TGI of CNc1ccc(Cl)cc1S(=O)(=O)c1ccccc1[N+](=O)[O-] ? > 100 µM
